Data provenance is the supplement of paper PMC8728848.

Each record here notes measured glycan array binding signal (z-score).
- measurementTarget: Neu5Ac(a2-6)GalNAc(b1-4)GlcNAc
- protocolDetails: glycan array binding signal (z-score within array); higher = stronger binding
- measurementSetup: glycan notation: IUPAC condensed, linker removed
This excerpt belongs to a sample that is enriched for the strongest signals.
experimentalEndpoint: glycan array binding signal (z-score)

[[record]]
binder = "Thrombomodulin (Mus musculus) (protein) ALAKLQPTGSQCVEHECFALFQGPATFLDASQACQRLQGHLMTVRSSVAADVISLLLSQSSMDLGPWIGLQLPQGCDDPVHLGPLRGFQWVTGDNHTSYSRWARPNDQTAPLCGPLCVTVSTATEAAPGEPAWEEKPCETETQGFLCEFYFTASC"
experimentalendpoint = "glycan array binding signal (z-score)"
reportedmeasurement = -0.193

[[record]]
binder = "MCL (Mus musculus), Q9Z2H6 (protein) MWLEESQMKSKGTRHPQLIPCVFAVVSISFLSACFISTCLVTHHYFLRWTRGSVVKLSDYHTRVTCIREEPQPGATGGTWTCCPVSWRAFQSNCYFPLNDNQTWHESERNCSGMSSHLVTINTEAEQNFVTQLLDKRFSYFLGLADENVEGQWQWVDKTPFNPHTVFWEKGESNDFMEEDCVVLVHVHEKWVWNDFPCHFEVRRICKLPGITFNWKPSK"
experimentalendpoint = "glycan array binding signal (z-score)"
reportedmeasurement = -0.814

[[record]]
binder = "Mincle (Homo sapiens), Q9ULY5 (protein) MNSSKSSETQCTERGCFSSQMFLWTVAGIPILFLSACFITRCVVTFRIFQTCDEKKFQLPENFTELSCYNYGSGSVKNCCPLNWEYFQSSCYFFSTDTISWALSLKNCSAMGAHLVVINSQEEQEFLSYKKPKMREFFIGLSDQVVEGQWQWVDGTPLTKSLSFWDVGEPNNIATLEDCATMRDSSNPRQNWNDVTCFLNYFRICEMVGINPLNKGKSL"
experimentalendpoint = "glycan array binding signal (z-score)"
reportedmeasurement = -0.184

[[record]]
binder = "HHA (Hippeastrum hybrid) (protein) MQQDCNLVLYDVDKPIWASNTGGLARDCHLNMQSDGNLVVYAPRNQVIWASNTQGENGNYVCILQKDRNVVIYGTARWATGTNIHGAGIVGVPGSAPQNTTAEMIKLVRKYLITK"
experimentalendpoint = "glycan array binding signal (z-score)"
reportedmeasurement = -0.222

[[record]]
binder = "Dectin2 (Homo sapiens), Q6EIG7 (protein) MMQEQQPQSTEKRGWLSLRLWSVAGISIALLSACFIVSCVVTYHFTYGETGKRLSELHSYHSSLTCFSEGTKVPAWGCCPASWKSFGSSCYFISSEEKVWSKSEQNCVEMGAHLVVFNTEAEQNFIVQQLNESFSYFLGLSDPQGNNNWQWIDKTPYEKNVRFWHLGEPNHSAEQCASIVFWKPTGWGWNDVICETRRNSICEMNKIYL"
experimentalendpoint = "glycan array binding signal (z-score)"
reportedmeasurement = -0.192

[[record]]
binder = "Banana lectin (Musa acuminata) (protein) MNGAIKVGAWGGNGGSAFDMGPAYRIISVKIFSGDVVDGVDVTFTYYGKTETRHYGGSGGTPHEIVLQEGEYLVGMAGEVANYHGAVVLGKLGFSTNKKAYGPFGNTGGTPFSLPIAAGKISGFFGRGGKFLDAIGVYLEPLEHHHHHH"
experimentalendpoint = "glycan array binding signal (z-score)"
reportedmeasurement = -0.221

[[record]]
binder = "pilr alpha (protein) MLYGVTQPKHLSASMGGSVEIPFSFYYPWELATAPDVRISWRRGHFHRQSFYSTRPPSIHKDYVNRLFLNWTEGQKSGFLRISNLQKQDQSVYFCRVELDTRSSGRQQWQSIEGTKLSIT"
experimentalendpoint = "glycan array binding signal (z-score)"
reportedmeasurement = -0.492

[[record]]
binder = "FBG2 (Homo sapiens), Q9NRD1 (protein) MDAPHSKAALDSINELPENILLELFTHVPARQLLLNCRLVCSLWRDLIDLMTLWKRKCLREGFITKDWDQPVADWKIFYFLRSLHRNLLRNPCAEEDMFAWQIDFNGGDRWKVESLPGAHGTDFPDPKVKKYFVTSYEMCLKSQLVDLVAEGYWEELLDTFRPDIVVKDWFAARADCGCTYQLKVQLASADYFVLASFEPPPVTIQQWNNATWTEVSYTFSDYPRGVRYILFQHGGRDTQYWAGWYGPRVTNSSIVVSPKMTRNQASSEAQPGQKHGQEEAAQSPYRAVVQIFPPPVTIQQWNNATWTEVSYTFSDYPRGVRYILFQHGGRDTQYWAGWYGPRVTNSSIVVSPKMTRNQASSEAQPGQKHGQEEAAQSPYRAVVQI"
experimentalendpoint = "glycan array binding signal (z-score)"
reportedmeasurement = -0.582

